# Lookup of reported % binding (parent = 100) keyed by entry
Target system: T1, human C5 (human, UniProt P01031 19-673; P01031 678-1676, Beta and alpha chains are disulfide-linked and the protein is glycosylated.)
T1 construct: Either in-house recombinant C5 or plasma derived C5 (CALBIOCHEM) was used; also called recombinant human C5; plasma derived human C5
Measurement description: Biacore, captured antibody, pH 7.4, 37 C;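 also: biacore binding response of anti-C5 antibody light chain variants captured on chip with human C5 injected, ACES running buffer containing 1.2 mM CaCl₂, parent light chain antibody set to 100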

Binder	% binding (parent = 100), %
CFP0011 11L 93D (antibody, V domains shown) VH: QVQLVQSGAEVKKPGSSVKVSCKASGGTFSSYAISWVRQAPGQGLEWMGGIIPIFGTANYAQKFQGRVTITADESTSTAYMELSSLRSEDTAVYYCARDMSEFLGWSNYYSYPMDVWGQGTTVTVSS VL: DIQMTQSPSSLSASVGDRVTITCRASQSIEDDLAWYQQKPGKAPKLLIYHASSLQSGVPSRFSGSGSGTDFTLTISSLQPEDFATYYCQQSDDSPYTFGQGTKVEIK	5.4
CFP0015 15L 91Q (antibody, V domains shown) VH: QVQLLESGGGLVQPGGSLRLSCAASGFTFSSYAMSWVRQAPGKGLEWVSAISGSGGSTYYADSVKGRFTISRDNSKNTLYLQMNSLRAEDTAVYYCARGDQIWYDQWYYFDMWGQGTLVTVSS VL: DIQMTQSPSSLSASVGDRVTITCRASQSIEDDLAWYQQKPGKAPKLLIYEASNLQSGVPSRFSGSGSGTDFTLTISSLQPEDFATYYCQQQDSSPLTFGQGTKVEIK	96.4
